// provenance: paper PMC9410885

# target_desc: T1, Thp3;Csn12;Sem1 (Saccharomyces cerevisiae;Saccharomyces …, UniProt Q12049;P47130;O94742 1-470;1-423;1-89, ||)
# T1 sequence 1: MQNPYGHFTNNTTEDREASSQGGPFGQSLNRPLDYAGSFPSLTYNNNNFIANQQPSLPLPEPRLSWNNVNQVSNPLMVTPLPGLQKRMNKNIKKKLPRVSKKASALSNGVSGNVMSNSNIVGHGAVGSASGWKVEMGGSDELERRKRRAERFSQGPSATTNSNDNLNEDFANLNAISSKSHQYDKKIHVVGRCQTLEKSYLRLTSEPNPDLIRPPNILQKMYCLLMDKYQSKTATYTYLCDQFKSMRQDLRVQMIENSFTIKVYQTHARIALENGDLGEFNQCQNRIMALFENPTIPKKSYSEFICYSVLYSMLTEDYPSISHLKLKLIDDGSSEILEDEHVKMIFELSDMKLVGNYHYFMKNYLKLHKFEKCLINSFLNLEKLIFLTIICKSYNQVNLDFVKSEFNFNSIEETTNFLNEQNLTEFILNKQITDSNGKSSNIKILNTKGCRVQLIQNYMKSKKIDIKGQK
# T1 sequence 2: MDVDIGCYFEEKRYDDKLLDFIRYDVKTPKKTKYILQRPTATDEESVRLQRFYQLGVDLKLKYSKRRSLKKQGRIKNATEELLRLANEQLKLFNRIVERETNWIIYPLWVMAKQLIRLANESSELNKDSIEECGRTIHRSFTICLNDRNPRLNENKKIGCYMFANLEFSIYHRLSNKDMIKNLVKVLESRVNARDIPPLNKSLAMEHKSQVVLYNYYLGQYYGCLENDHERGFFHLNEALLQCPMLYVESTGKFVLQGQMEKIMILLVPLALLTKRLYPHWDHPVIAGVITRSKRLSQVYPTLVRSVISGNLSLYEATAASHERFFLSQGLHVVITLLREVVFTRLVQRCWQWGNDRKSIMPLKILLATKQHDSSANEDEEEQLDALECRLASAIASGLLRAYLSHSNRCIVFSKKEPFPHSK
# T1 sequence 3: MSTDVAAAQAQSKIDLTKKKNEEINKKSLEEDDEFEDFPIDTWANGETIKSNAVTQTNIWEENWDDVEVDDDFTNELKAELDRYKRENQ
# run_description: fluorescence polarization; FP: 20 mM Tris-HCl pH 8.0, 150 mM NaCl, 2 mM MgCl2, 25 C; 50 nM 5'-FAM probe, protein 0-25.6 uM, 30 min
# experimental_parameters: protein: recombinant;recombinant;recombinant; tags: 8xHis-GST N-terminal, removed by TEV;none;none; copies: 1;1;1; label: 5' FAM; blunt
quantity_measured: pKd
Answers are plain numbers, as −log10 of the molar value.

Fill blank: measured pKd of the binder T-rich dsDNA 20 (dsDNA) DNA 1: TTTTATTTTATTTTTATTTT DNA 2: AAAATAAAAATAAAATAAAA is ____. 5.96
